Reported pIC50 by item:
# test_target: CDK4/CycD3 (Homo sapiens (Human))
# Sequence (P11802 whole entry, species assumed): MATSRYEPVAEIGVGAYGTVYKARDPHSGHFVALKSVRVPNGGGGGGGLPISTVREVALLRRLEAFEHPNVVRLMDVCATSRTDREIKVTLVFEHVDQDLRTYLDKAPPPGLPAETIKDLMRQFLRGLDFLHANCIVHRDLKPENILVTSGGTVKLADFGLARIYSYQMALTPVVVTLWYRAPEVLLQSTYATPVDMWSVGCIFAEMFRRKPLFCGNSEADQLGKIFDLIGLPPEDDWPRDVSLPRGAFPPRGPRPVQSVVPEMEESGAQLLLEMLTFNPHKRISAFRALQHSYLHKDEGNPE
# Sequence (P30281 whole entry partner, species assumed): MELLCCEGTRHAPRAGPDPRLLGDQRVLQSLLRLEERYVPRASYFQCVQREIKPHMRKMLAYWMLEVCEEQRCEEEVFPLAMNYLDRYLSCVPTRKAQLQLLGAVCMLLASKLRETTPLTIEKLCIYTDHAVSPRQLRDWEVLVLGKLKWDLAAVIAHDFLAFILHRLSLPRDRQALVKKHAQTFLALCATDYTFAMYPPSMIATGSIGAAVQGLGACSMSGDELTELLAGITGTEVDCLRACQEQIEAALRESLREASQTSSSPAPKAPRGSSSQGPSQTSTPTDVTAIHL
# method_description: CDK4/CycD3 kinase Mobility Shift Assay
# Format: biochemical
# measurement_context: CDK4/CycD3 10 nM, ATP Km 221 μM, 180 min, 28° C.
pIC50: −log10 of the molar value.

[
  {
    "smiles_repr": "Cc1nc2c(F)cc(-c3nc(Nc4ccc(-c5ccc(C(=O)NO)cn5)cn4)ncc3F)cc2n1C(C)C",
    "test_target": "CDK4/CycD3 (Homo sapiens (Human))",
    "pIC50": "> 8.00"
  },
  {
    "smiles_repr": "Cc1nc2c(F)cc(-c3nc(Nc4ccc(N(C)Cc5ccc(/C=C/C(=O)NO)cc5)cn4)ncc3F)cc2n1C(C)C",
    "test_target": "CDK4/CycD3 (Homo sapiens (Human))",
    "pIC50": "7.00 to 8.00"
  },
  {
    "smiles_repr": "Cc1nc2c(F)cc(-c3nc(Nc4ccc(N(C)CCCCCCC(=O)NO)cn4)ncc3F)cc2n1C(C)C",
    "test_target": "CDK4/CycD3 (Homo sapiens (Human))",
    "pIC50": "> 8.00"
  },
  {
    "smiles_repr": "Cc1nc2c(F)cc(-c3nc(Nc4cc(C(=O)NO)ccn4)ncc3F)cc2n1C(C)C",
    "test_target": "CDK4/CycD3 (Homo sapiens (Human))",
    "pIC50": "7.00 to 8.00"
  },
  {
    "smiles_repr": "Cc1nc2c(F)cc(-c3nc(Nc4ccc(N5CCN(C(=O)CCCCCCC(=O)NO)CC5)cn4)ncc3F)cc2n1C(C)C",
    "test_target": "CDK4/CycD3 (Homo sapiens (Human))",
    "pIC50": "> 8.00"
  },
  {
    "smiles_repr": "Cc1nc2c(F)cc(-c3nc(Nc4ccc(N(C)Cc5ccc(C(=O)NO)cc5)cn4)ncc3F)cc2n1C(C)C",
    "test_target": "CDK4/CycD3 (Homo sapiens (Human))",
    "pIC50": "> 8.00"
  },
  {
    "smiles_repr": "Cc1nc2c(F)cc(-c3nc(Nc4ccc(N5CCC(C(=O)NO)CC5)cn4)ncc3F)cc2n1C(C)C",
    "test_target": "CDK4/CycD3 (Homo sapiens (Human))",
    "pIC50": "> 8.00"
  },
  {
    "smiles_repr": "Cc1nc2c(F)cc(-c3nc(Nc4ccc(C(=O)NO)cn4)ncc3F)cc2n1C(C)C",
    "test_target": "CDK4/CycD3 (Homo sapiens (Human))",
    "pIC50": "> 8.00"
  },
  {
    "smiles_repr": "Cc1nc2c(F)cc(-c3nc(Nc4ccc(N5CCN(CCCCC(=O)NO)CC5)cn4)ncc3F)cc2n1C(C)C",
    "test_target": "CDK4/CycD3 (Homo sapiens (Human))",
    "pIC50": "> 8.00"
  },
  {
    "smiles_repr": "Cc1nc2c(F)cc(-c3nc(Nc4ccc(CN5CCN(CCCCCCC(=O)NO)CC5)cn4)ncc3F)cc2n1C(C)C",
    "test_target": "CDK4/CycD3 (Homo sapiens (Human))",
    "pIC50": "> 8.00"
  },
  {
    "smiles_repr": "Cc1nc2c(F)cc(-c3nc(Nc4ccc(C(=O)NO)nc4)ncc3F)cc2n1C(C)C",
    "test_target": "CDK4/CycD3 (Homo sapiens (Human))",
    "pIC50": "> 8.00"
  },
  {
    "smiles_repr": "Cc1nc2c(F)cc(-c3nc(Nc4ccc(N5CCN(Cc6ccc(C(=O)NO)cc6)CC5)cn4)ncc3F)cc2n1C(C)C",
    "test_target": "CDK4/CycD3 (Homo sapiens (Human))",
    "pIC50": "> 8.00"
  },
  {
    "smiles_repr": "Cc1nc2c(F)cc(-c3nc(Nc4ccc(/C=C/C(=O)NO)cn4)ncc3F)cc2n1C(C)C",
    "test_target": "CDK4/CycD3 (Homo sapiens (Human))",
    "pIC50": "> 8.00"
  }
]

---

# test_target: CDK2/CycA2 (Homo sapiens (Human), UniProt P24941)
# method_description: CDK2/CycA2 kinase Mobility Shift Assay
# measurement_context: CDK2/CycA2 12 nM, ATP Km 39 μM, 60 min, 28° C.
endpoint: IC50

[
  {
    "smiles_repr": "Cc1nc2c(F)cc(-c3nc(Nc4ccc(N5CCN(CCCCCCC(=O)NO)CC5)cn4)ncc3F)cc2n1C(C)C",
    "test_target": "CDK2/CycA2 (Homo sapiens (Human), UniProt P24941)",
    "result_value": "10 to 100 nM"
  },
  {
    "smiles_repr": "Cc1nc2c(F)cc(-c3nc(Nc4ccc(N(C)CCN(C)c5ncc(C(=O)NO)cn5)cn4)ncc3F)cc2n1C(C)C",
    "test_target": "CDK2/CycA2 (Homo sapiens (Human), UniProt P24941)",
    "result_value": "100 to 500 nM"
  },
  {
    "smiles_repr": "Cc1nc2c(F)cc(-c3nc(Nc4ccc(CN5CCN(CCCCCCC(=O)NO)CC5)cn4)ncc3F)cc2n1C(C)C",
    "test_target": "CDK2/CycA2 (Homo sapiens (Human), UniProt P24941)",
    "result_value": "10 to 100 nM"
  },
  {
    "smiles_repr": "Cc1nc2c(F)cc(-c3nc(Nc4ccc(N(C)Cc5ccc(/C=C/C(=O)NO)cc5)cn4)ncc3F)cc2n1C(C)C",
    "test_target": "CDK2/CycA2 (Homo sapiens (Human), UniProt P24941)",
    "result_value": "100 to 500 nM"
  }
]

---

# test_target: CDK6/cycD3 (Homo sapiens (Human), UniProt Q00534)
# Sequence (Q00534 whole entry, species assumed, one chain of several): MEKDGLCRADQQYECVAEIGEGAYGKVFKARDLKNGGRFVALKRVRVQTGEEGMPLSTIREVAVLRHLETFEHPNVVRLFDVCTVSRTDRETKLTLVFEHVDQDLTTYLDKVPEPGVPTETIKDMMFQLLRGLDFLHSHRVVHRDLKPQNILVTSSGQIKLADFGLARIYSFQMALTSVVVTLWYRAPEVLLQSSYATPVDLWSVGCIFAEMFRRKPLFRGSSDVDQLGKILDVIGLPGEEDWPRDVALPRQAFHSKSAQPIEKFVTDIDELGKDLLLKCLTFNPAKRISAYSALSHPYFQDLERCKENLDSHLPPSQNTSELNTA
# method_description: CDK6/cycD3 kinase Mobility Shift Assay
# measurement_context: CDK6/cycD3 15 nM, ATP Km 800 μM, 60 min, 28° C.
endpoint: IC50

[
  {
    "smiles_repr": "Cc1nc2c(F)cc(-c3nc(Nc4ccc(N5CCN(CCCCCCC(=O)NO)CC5)cn4)ncc3F)cc2n1C(C)C",
    "result_value": "0.01 to 0.1 µM"
  },
  {
    "smiles_repr": "Cc1nc2c(F)cc(-c3nc(Nc4ccc(C(=O)NO)cn4)ncc3F)cc2n1C(C)C",
    "result_value": "0.1 to 0.5 µM"
  },
  {
    "smiles_repr": "Cc1nc2c(F)cc(-c3nc(Nc4ccc(CN5CCN(CCCCCCC(=O)NO)CC5)cn4)ncc3F)cc2n1C(C)C",
    "result_value": "0.01 to 0.1 µM"
  },
  {
    "smiles_repr": "Cc1nc2c(F)cc(-c3nc(Nc4ccc(N5CCN(Cc6ccc(C(=O)NO)cc6)CC5)cn4)ncc3F)cc2n1C(C)C",
    "result_value": "0.01 to 0.1 µM"
  }
]

---

Measured pIC50 accompanies every entry in the list below.
# test_target: CDK6/cycD3 (Homo sapiens (Human), UniProt Q00534)
# method_description: CDK6/cycD3 kinase Mobility Shift Assay
# measurement_context: CDK6/cycD3 15 nM, ATP Km 800 μM, 60 min, 28° C.
pIC50: −log10 of the molar value.

[
  {
    "molecule": "Cc1nc2c(F)cc(-c3nc(Nc4ccc(N(C)CCCCCCC(=O)NO)cn4)ncc3F)cc2n1C(C)C [Compound 3]",
    "pIC50": "7.00 to 8.00"
  },
  {
    "molecule": "Cc1nc2c(F)cc(-c3nc(Nc4ccc(N5CCC(C(=O)NO)CC5)cn4)ncc3F)cc2n1C(C)C [Compound 15]",
    "pIC50": "7.00 to 8.00"
  },
  {
    "molecule": "Cc1nc2c(F)cc(-c3nc(Nc4ccc(N5CCN(C(=O)CCCCCCC(=O)NO)CC5)cn4)ncc3F)cc2n1C(C)C [Compound 10]",
    "pIC50": "> 8.00"
  },
  {
    "molecule": "Cc1nc2c(F)cc(-c3nc(Nc4ccc(N(C)Cc5ccc(/C=C/C(=O)NO)cc5)cn4)ncc3F)cc2n1C(C)C [Compound 7]",
    "pIC50": "6.00 to 6.30"
  },
  {
    "molecule": "Cc1nc2c(F)cc(-c3nc(Nc4ccc(-c5ccc(C(=O)NO)cn5)cn4)ncc3F)cc2n1C(C)C [Compound 16]",
    "pIC50": "7.00 to 8.00"
  },
  {
    "molecule": "Cc1nc2c(F)cc(-c3nc(Nc4ccc(N5CCN(CCC(=O)NO)CC5)cn4)ncc3F)cc2n1C(C)C [Compound 14]",
    "pIC50": "7.00 to 8.00"
  },
  {
    "molecule": "Cc1nc2c(F)cc(-c3nc(Nc4ccc(/C=C/C(=O)NO)cn4)ncc3F)cc2n1C(C)C [Compound 5]",
    "pIC50": "6.30 to 7.00"
  }
]
